- System: A549
- experimentNotes: Cytotoxicity against human A549 cells assessed as reduction in cell viability after 48 hrs by SRB assay
- Format: functional, cell-based
- conditionLabel: A549, 48 h
quantityMeasured: IC50

- compound: "C=C(C)[C@@H]1CC[C@]2(C(=O)O)CC[C@]3(C)[C@H](CC[C@@H]4[C@@]5(C)CC[C@H](O)C(C)(C)[C@@H]5CC[C@]43C)[C@@H]12 [BETULINIC ACID]"
  IC50: "> 10 µM"
- compound: "C=C(C)[C@@H]1CC[C@]2(C(=O)O)CC[C@]3(C)[C@H](CC[C@@H]4[C@@]5(C)C/C(=C\\c6c(Cl)cccc6Cl)[C@H](O)C(C)(C)[C@@H]5CC[C@]43C)[C@@H]12"
  IC50: "> 10 µM"

Let us examine a further case.
Any idea what its IC50 is? The compound is C=C(C)[C@@H]1CC[C@]2(C(=O)O)CC[C@]3(C)[C@H](CC[C@@H]4[C@@]5(C)C/C(=C\c6ccccc6Br)[C@H](O)C(C)(C)[C@@H]5CC[C@]43C)[C@@H]12
> 10 µM

====

- Tested on: MIA PaCa-2
- experimentNotes: Growth inhibition of human MIAPaCa2 at 10 uM after 48 hrs by SRB assay relative to control
- Format: functional
- conditionLabel: MIA PaCa-2, 48 h, read-out: GI
quantityMeasured: inhibition of growth at 10 µM (%)
Provide the reading as a plain figure in %.

Check out these entries, answers already filled in.
- chemicalStructure: "C=C(C)[C@@H]1CC[C@]2(C(=O)O)CC[C@]3(C)[C@H](CC[C@@H]4[C@@]5(C)C/C(=C\\c6ccc(F)c(Br)c6)C(=O)C(C)(C)[C@@H]5CC[C@]43C)[C@@H]12"
  obsValue: 82
- chemicalStructure: "C=C(C)[C@@H]1CC[C@]2(C(=O)O)CC[C@]3(C)[C@H](CC[C@@H]4[C@@]5(C)CC[C@H](O)C(C)(C)[C@@H]5CC[C@]43C)[C@@H]12"
  obsValue: 26

Let us examine a further case.
Any idea what its inhibition of growth at 10 µM is? The compound is C=C(C)[C@@H]1CC[C@]2(C(=O)O)CC[C@]3(C)[C@H](CC[C@@H]4[C@@]5(C)C/C(=C\c6cccc(Br)c6)[C@H](O)C(C)(C)[C@@H]5CC[C@]43C)[C@@H]12
22

====

- experimentNotes: Selectivity index, ratio of IC50 for human FR2 cells to IC50 for human A549 cells
- Format: functional
Assign t to entries whose Ratio IC50 meets or exceeds 4; assign f to the rest.

Worked set:
- chemicalStructure: "C=C(C)[C@@H]1CC[C@]2(C(=O)O)CC[C@]3(C)[C@H](CC[C@@H]4[C@@]5(C)C/C(=C\\c6cccc([N+](=O)[O-])c6)C(=O)C(C)(C)[C@@H]5CC[C@]43C)[C@@H]12"
  label: "f"
- chemicalStructure: "C=C(C)[C@@H]1CC[C@]2(C(=O)O)CC[C@]3(C)[C@H](CC[C@@H]4[C@@]5(C)C/C(=C\\c6cc(Br)ccc6OC)[C@H](O)C(C)(C)[C@@H]5CC[C@]43C)[C@@H]12"
  label: "f"
- chemicalStructure: "C=C(C)[C@@H]1CC[C@]2(C(=O)O)CC[C@]3(C)[C@H](CC[C@@H]4[C@@]5(C)C/C(=C\\c6ccc(F)cc6)[C@H](O)C(C)(C)[C@@H]5CC[C@]43C)[C@@H]12"
  label: "f"

Continue with the next compound.
Hello, I need to know if C=C(C)[C@@H]1CC[C@]2(C(=O)O)CC[C@]3(C)[C@H](CC[C@@H]4[C@@]5(C)C/C(=C\c6ccsc6)C(=O)C(C)(C)[C@@H]5CC[C@]43C)[C@@H]12 has measured Ratio IC50 not below 4. Thanks!
t

The reported measurements were obtained from ChEMBL document CHEMBL4052644.
